// values below are reported log10(IC50)
- Tested on: GT-1a pRLuc H771b 75 S/I subgenomic replicon cell line
- runDescription: HCV GT-1a replicon luciferase reporter assay
- Assay type: cell-based
- measurementContext: Hepatitis C virus, GT1A, 72 h, read-out: GT-1a (IC50) (nM)
measuredEndpoint: log10(IC50) (log10 of the value in nM)

compound | readoutNumber
COC(=O)N[C@@H](C)C(=O)N1CCC[C@H]1c1ncc(-c2ccc(-c3ccc(-c4cnc([C@@H]5Cc6cccc7c6N5C(=O)[C@@H](NC(=O)OC)CC7)[nH]4)cc3)cc2)[nH]1 | 0.59
COC(=O)NC(C(=O)N1CCC[C@H]1c1ncc(-c2ccc(-c3ccc(-c4cnc([C@@H]5Cc6cccc7c6N5C(=O)[C@@H](NC(=O)OC)CC7)[nH]4)cc3)cc2)[nH]1)C1CCOCC1 (some centres unmarked) | 0.45
COC(=O)N[C@H]1CCc2cccc3c2N(C1=O)[C@H](c1ncc(-c2ccc(-c4ccc(-c5cnc(C6C7CC7CN6C(=O)[C@H](NC(=O)OC)c6ccccc6)[nH]5)cc4)cc2)[nH]1)C3 (some centres unmarked) | 1.83
COC(=O)N[C@H]1CCc2cccc3c2N(C1=O)[C@H](c1ncc(-c2ccc(-c4ccc5cc(-c6cnc([C@@H]7C[C@H](C#N)CN7C(=O)[C@@H](NC(=O)OC)C(C)C)[nH]6)ccc5c4)cc2)[nH]1)C3 | 0.40
COC(=O)N[C@H]1CCc2cccc3c2N(C1=O)[C@H](c1ncc(-c2ccc(-c4ccc(-c5cnc([C@@H]6C[C@@H](F)CN6C(=O)[C@@H](NC(=O)OC)C(C)C)[nH]5)cc4)cc2)[nH]1)C3 | 1.27

====

// values below are reported IC50
- System: GT-1a pRLuc H771b 75 S/I subgenomic replicon cell line
- runDescription: HCV GT-1a replicon luciferase reporter assay
- Type: cell-based
- measurementContext: Hepatitis C virus, GT1A, 72 h, read-out: GT-1a (IC50) (nM)
Where a name gives a salt, the structure may show the parent alone.

molecule | unitSpec | IC50
COC(=O)N[C@H]1CCc2cccc3c2N(C1=O)[C@H](c1ncc(-c2ccc(-c4ccc(-c5cnc([C@@H]6CCCN6C(=O)C6(NC(=O)OC)COC6)[nH]5)cc4)cc2)[nH]1)C3 | nM | 110
COC(=O)N[C@H]1CCc2cccc3c2N(C1=O)[C@H](c1ncc(-c2cnc(-c4ccc5cc(-c6cnc([C@@H]7CCCN7C(=O)[C@@H](NC(=O)OC)C(C)C)[nH]6)ccc5c4)nc2)[nH]1)C3 | nM | 3.2
COC(=O)N[C@H]1CCc2cccc3c2N(C1=O)[C@H](c1nc2ccc(-c4ccc(-c5ccc(-c6cnc([C@@H]7CCCN7C(=O)[C@@H](NC(=O)OC)C(C)C)[nH]6)cc5)nc4)cc2[nH]1)C3 | nM | 18.6
COC(=O)N[C@H]1CCc2cccc3c2N(C1=O)[C@H](c1ncc(-c2ccc(-c4ccc5cc(-c6cnc([C@@H]7CCCN7C(=O)[C@@H](NC(=O)OC)C(C)C)[nH]6)ccc5n4)cc2)[nH]1)C3 [Compound I-21, trifluoroacetic acid salt] | nM | 0.395

====

// values below are reported IC50
- Tested on: GT-1a pRLuc H771b 75 S/I subgenomic replicon cell line
- runDescription: HCV GT-1a replicon luciferase reporter assay
- Assay type: cell-based
- measurementContext: Hepatitis C virus, GT1A, 72 h, read-out: GT-1a (IC50) (nM)
Structures can show the parent of a compound that is named as a salt.
measuredEndpoint: IC50 (nM)

compound | readoutNumber
COC(=O)N[C@H]1CCc2cccc3c2N(C1=O)[C@H](c1nc2ccc(-c4ccc(-c5cnc([C@@H]6CCCN6C(=O)[C@@H](NC(=O)OC)C(C)C)[nH]5)cc4)cc2[nH]1)C3 | 43.3
COC(=O)N[C@H]1CCc2cccc3c2N(C1=O)[C@H](c1ncc(-c2ccc(-c4ccc(-c5cnc([C@@H]6COCCN6C(=O)[C@@H](NC(=O)OC)C(C)C)[nH]5)cc4)cc2)[nH]1)C3 | 9.87
COC[C@H](NC(=O)OC)C(=O)N1CCC[C@H]1c1ncc(-c2ccc(-c3ccc(-c4cnc([C@@H]5Cc6cccc7c6N5C(=O)[C@@H](NC(=O)OC)CC7)[nH]4)cc3)cc2)[nH]1 | 5.64
COC(=O)N[C@H]1CCc2cccc3c2N(C1=O)[C@H](c1ncc(-c2ccc(-c4ccc(-c5cnc([C@@H]6C[C@H](F)CN6C(=O)[C@@H](NC(=O)OC)C(C)C)[nH]5)cc4)cc2)[nH]1)C3 | 6.33
COC(=O)N[C@H]1CC(=O)c2cccc3c2N(C1=O)[C@H](c1ncc(-c2ccc(-c4ccc(-c5cnc([C@@H]6CCCN6C(=O)[C@@H](NC(=O)OC)C(C)C)[nH]5)cc4)cc2)[nH]1)C3 | 1.81
COC(=O)NC(C(=O)N1CCOC[C@H]1c1ncc(-c2ccc(-c3ccc(-c4cnc([C@@H]5Cc6cccc7c6N5C(=O)[C@@H](NC(=O)OC)CC7)[nH]4)cc3)cc2)[nH]1)c1ccccc1 (stereo in doubt) | 7.3
CC[C@H](NC(=O)OC)C(=O)N1CCC[C@H]1c1ncc(-c2ccc(-c3ccc(-c4cnc([C@@H]5Cc6cccc7c6N5C(=O)[C@@H](NC(=O)OC)CC7)[nH]4)cc3)cc2)[nH]1 | 17.1
COC(=O)N[C@H]1CCc2cccc3c2N(C1=O)[C@H](c1ncc(-c2ccc(-c4ccc(-c5[nH]c([C@@H]6CCCN6C(=O)[C@@H](NC(=O)OC)C(C)C)nc5Cl)cc4)cc2)[nH]1)C3 | 1
COC(=O)N[C@H]1CCc2cccc3c2N(C1=O)[C@H](c1ncc(-c2ccc(-c4ccc(-c5cnc([C@@H]6CCCN6C(=O)[C@@H](NC(=O)OC)C(C)C)[nH]5)cc4)c(F)c2)[nH]1)C3 | 5.92
COC(=O)N[C@H]1CCc2cccc3c2N(C1=O)[C@H](c1ncc(-c2ccc(-c4ccc5cc(-c6cnc([C@@H]7CCCN7C(=O)[C@@H](NC(=O)OC)C(C)C)[nH]6)ccc5c4)nc2)[nH]1)C3 [Compound I-23, di-trifluoroacetic acid salt] | 0.767
COC(=O)N[C@H]1CCc2cccc3c2N(C1=O)[C@H](c1ncc(-c2ccc(-c4cnc5cc(-c6cnc([C@@H]7CCCN7C(=O)[C@@H](NC(=O)OC)C(C)C)[nH]6)ccc5n4)cc2)[nH]1)C3 | 0.41
COC(=O)N[C@H]1CCc2cccc3c2N(C1=O)[C@H](c1ncc(-c2ccc(-c4ccc(-c5cnc([C@@H]6CCCN6C(=O)[C@@H](NC(=O)OC)C(C)C)[nH]5)cc4)cc2F)[nH]1)C3 | 13.8
COC(=O)N[C@H]1CCc2cccc3c2N(C1=O)[C@H](c1ncc(-c2ccc(-c4cnc5cc(-c6cnc([C@@H]7CCCN7C(=O)[C@H](NC(=O)OC)c7ccccc7)[nH]6)ccc5n4)cc2)[nH]1)C3 | 0.79
COC(=O)N[C@H]1CCc2cccc3c2N(C1=O)[C@H](c1ncc(-c2ccc(-c4ccc(-c5[nH]c([C@@H]6CC(F)(F)CN6C(=O)[C@@H](NC(=O)OC)C(C)C)nc5Cl)cc4)cc2)[nH]1)C3 | 5.78
COC(=O)N[C@H]1CCc2cccc3c2N(C1=O)[C@H](c1ncc(-c2ccc4cc(-c5ccc(-c6cnc([C@@H]7CCCN7C(=O)[C@@H](NC(=O)OC)C(C)C)[nH]6)cn5)ccc4c2)[nH]1)C3 [Compound I-24, di-trifluoroacetic acid salt] | 1.16

====

- Test system: GT-1a pRLuc H771b 75 S/I subgenomic replicon cell line
- runDescription: HCV GT-1a replicon luciferase reporter assay
- Format: cell-based
- measurementContext: Hepatitis C virus, GT1A, 72 h, read-out: GT-1a (IC50) (nM)
// values below are reported IC50

compound | IC50 [nM]
COC(=O)N[C@H]1CCc2cccc3c2N(C1=O)[C@H](c1ncc(-c2cnc4cc(-c5ccc(-c6cnc([C@@H]7CC(F)(F)CN7C(=O)[C@@H](NC(=O)OC)C(C)C)[nH]6)cc5)ccc4c2)[nH]1)C3 [Compound I-19] | 2.89
COC(=O)NC(C(=O)N1CCCC1c1ncc(-c2ccc(-c3ccc(-c4cnc([C@@H]5Cc6cc(C#N)cc7c6N5C(=O)[C@@H](NC(=O)OC)CC7)[nH]4)cc3)cc2)[nH]1)C(C)C (stereo in doubt) [Compound I-26] | 7.71

====

- Test system: GT-1a pRLuc H771b 75 S/I subgenomic replicon cell line
- runDescription: HCV GT-1a replicon luciferase reporter assay
- Format: cell-based
- measurementContext: Hepatitis C virus, GT1A, 72 h, read-out: GT-1a (IC50) (nM)
// values below are reported IC50

molecule | IC50
COC(=O)NC(C(=O)N1CCCC1c1ncc(-c2ccc(-c3ccc(-c4cnc([C@@H]5Cc6cc(Br)cc7c6N5C(=O)[C@@H](NC(=O)OC)CC7)[nH]4)cc3)cc2)[nH]1)C(C)C (stereo in doubt) [Compound I-25] | 31.2 nM
COC(=O)N[C@H]1CCc2cccc3c2N(C1=O)[C@H](c1ncc(-c2ccc(-c4ccc(-c5ccc6nc([C@@H]7CCCN7C(=O)[C@@H](NC(=O)OC)C(C)C)[nH]c6c5)nc4)cc2)[nH]1)C3 [Compound I-7] | 32.2 nM
COC(=O)N[C@H]1CCc2cccc3c2N(C1=O)[C@H](c1nc2ccc(-c4ccc(-c5ccc6nc([C@@H]7CCCN7C(=O)[C@@H](NC(=O)OC)C(C)C)[nH]c6c5)cc4)cc2[nH]1)C3 [Compound I-5] | 49.8 nM
COC(=O)N[C@H]1CCc2cccc3c2N(C1=O)[C@H](c1ncc(-c2cnc(-c4ccc(-c5cnc([C@@H]6CC(F)(F)CN6C(=O)[C@@H](NC(=O)OC)C(C)C)[nH]5)cc4)nc2)[nH]1)C3 [Compound I-16] | 29.2 nM
COC(=O)N[C@H]1CCc2cccc3c2N(C1=O)[C@H](c1ncc(-c2ccc(-c4ccc(-c5cnc([C@@H]6CCCN6C(=O)[C@@H](NC(=O)OC)C(C)C)[nH]5)cc4C#N)cc2)[nH]1)C3 [Compound I-38] | 22.4 nM
COC(=O)N[C@@H](CCS(C)(=O)=O)C(=O)N1CCC[C@H]1c1ncc(-c2ccc(-c3ccc(-c4cnc([C@@H]5Cc6cccc7c6N5C(=O)[C@@H](NC(=O)OC)CC7)[nH]4)cc3)cc2)[nH]1 [Compound I-51] | 16.6 nM
COC(=O)N[C@H]1CCc2cccc3c2N(C1=O)[C@H](c1ncc(-c2ccc(-c4ccc(-c5cnc([C@@H]6C[C@@H](C#N)CN6C(=O)[C@@H](NC(=O)OC)C(C)C)[nH]5)cc4)cc2)[nH]1)C3 [Compound I-39] | 5.34 nM
COC(=O)N[C@H]1CCc2cccc3c2N(C1=O)[C@H](c1ncc(-c2ccc(-c4ccc(-c5cnc([C@@H]6CCCN6C(=O)[C@@H](NC(=O)OC)[C@@H](C)O)[nH]5)cc4)cc2)[nH]1)C3 (stereo in doubt) [Compound I-50] | 6.62 nM
CC[C@H](C)[C@H](NC(=O)OC)C(=O)N1CC(F)(F)C[C@H]1c1ncc(-c2cnc(-c3ccc(-c4cnc([C@@H]5Cc6cccc7c6N5C(=O)[C@@H](NC(=O)OC)CC7)[nH]4)cc3)nc2)[nH]1 [Compound I-58] | 26.1 nM
